- procedure summary: qHTS of pediatric cancer cell lines to identify multiple opportunities for drug repurposing: Primary screen for SJ-GBM2 cells (AID 1347091)
- assay conditions: SJ-GBM2 viability, CellTiter-Glo luminescence, 48 h; series mostly up to 46 µM
Inconclusive results are not listed. Activity calls are given as the source filed them. Calls come from the whole dose curve; as a rule, active = well fitted cell-killing curve with a large enough effect; inconclusive = small, poorly fitted or top-dose-only effect; inactive = no such curve, though single readings can be large or run the other way.
Bench note: report the call from Y = active, N = inactive

Please review the following examples before continuing.
CCCCn1c(=O)n(Cc2ccccc2F)c(=O)c2[nH]c(Cc3ccc(NC(C)=O)cc3)nc21; N
O=S(=O)(NCCNCC=Cc1ccc(Br)cc1)c1cccc2cnccc12; Y
Cc1ccccc1C(=O)c1ccc(Nc2ccc(Br)cc2N)cc1Cl; Y
CC(C)C[C@@H](N)[C@H](O)C(=O)N[C@H](C(=O)N[C@H](C(=O)N[C@@H](CC(=O)O)C(=O)O)C(C)C)C(C)C; N
CC(=O)Nc1cccc(-n2c(=O)n(C3CC3)c(=O)c3c(Nc4ccc(I)cc4F)n(C)c(=O)c(C)c32)c1; N
CCCCC(F)(F)[C@@]1(O)CC[C@H]2[C@H](CC(=O)[C@@H]2CCCCCCC(=O)O)O1; N
CCN(CCO)CCCOc1ccc2c(Nc3cc(CC(=O)Nc4cccc(F)c4)[nH]n3)ncnc2c1; Y
CCNC(=O)CCCC=CC[C@@H]1[C@H](C=CC(O)CCc2ccccc2)[C@@H](O)C[C@@H]1O (some centres undefined); N
c1ccc(CNc2nc(N3CCOc4ccccc43)nc3c2CCCC3)cc1; Y
NCC1CCC(C(=O)O)CC1 (centres undefined); N

Now look at this one.
query: Which outcome was entered for the compound CCCCC(C=O)NC(=O)C(CC(C)C)NC(=O)OCc1ccccc1 (centres undefined) in this test?
result: N
